tested.target: Progesterone receptor (Homo sapiens)
test.protocol: qHTS assay to identify small molecule antagonists of the progesterone receptor (PR) signaling pathway (AID 1346795)
test.context: PR-UAS-bla HEK293T, beta-lactamase FRET ratio, 16 h; series mostly up to 92.4 µM
Inconclusive results are not listed. The source made the active and inactive calls. Calls follow the shape of the dose curve; as a rule, active = well fitted inhibition curve with a large enough effect in the signal ratio in the repeat runs (not every such curve was filed as active); inconclusive = weak or mixed curves; inactive = flat fitted curve, though single readings scatter; the % refers to the signal ratio.
In this exercise, the only acceptable responses are active, inactive

Solved cases (3 shown):
[[record]]
compound = "Cl/C=C\\Cl"
class_name = "inactive"

[[record]]
compound = "COP(=S)(OC)Oc1cc(Cl)c(I)cc1Cl"
class_name = "active"

[[record]]
compound = "C=CCC1([C@H](C)CCC)C(=O)NC(=O)NC1=O"
class_name = "inactive"


Prompt: I would be grateful if you could indicate the recorded call for `C/C=C/C=O` .
Completion: inactive

Prompt: # fetch the recorded call for COC(=O)c1cncn1C(C)c1ccccc1 (configuration not stated) here
Completion: inactive

Prompt: // outcome(item) with item = O=S1OC[C@@H]2[C@H](CO1)[C@]1(Cl)C(Cl)=C(Cl)[C@@]2(Cl)C1(Cl)Cl (some centres not stated)
Completion: active

Prompt: Please state the recorded outcome for this compound: COC(=O)C(Br)CBr (configuration not stated)
Completion: inactive
